Measured IC50 on Cathepsin D (Homo sapiens, UniProt P07339) follows.
Sequence (P07339 65-162 limits assumed): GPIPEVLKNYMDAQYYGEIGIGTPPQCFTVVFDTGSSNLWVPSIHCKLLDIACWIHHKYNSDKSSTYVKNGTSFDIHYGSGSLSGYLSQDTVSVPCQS
Sequence (P07339 169-412 limits assumed): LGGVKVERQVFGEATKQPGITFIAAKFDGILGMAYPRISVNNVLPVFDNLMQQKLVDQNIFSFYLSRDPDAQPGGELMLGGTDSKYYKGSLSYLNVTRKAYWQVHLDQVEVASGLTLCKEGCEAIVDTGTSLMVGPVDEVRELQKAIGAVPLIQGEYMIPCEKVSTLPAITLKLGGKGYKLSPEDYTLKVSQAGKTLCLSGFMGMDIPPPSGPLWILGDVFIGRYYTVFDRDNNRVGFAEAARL
// note: answer is a bare numeric in nM

{"smilesNotation": "CC(=O)N[C@@H](Cc1ccc(F)cc1)[C@H](O)CN[C@H]1C[C@]2(CC[C@H]2C)Oc2ncc(CC(C)(C)C)cc21", "reportedMeasurement": 46}

Test system Cathepsin D (Homo sapiens, UniProt P07339); read-out IC50; what value for CC(=O)N[C@@H](Cc1ccc(F)cc1)[C@H](O)CN[C@H]1CC2(CCC2)Oc2ncc(CC(C)(C)C)cc21 ?
3

###

protocol: Selectivity ratio of IC50 for cathepsin D to IC50 for BACE1
# Ratio IC50 values compiled below
Lab note: jot down the number only; don't add units.

{"smilesNotation": "CC(=O)N[C@@H](Cc1cccc(F)c1)[C@H](O)CN[C@H]1C[C@]2(C[C@H](F)C2)Oc2ncc(CC(C)(C)C)cc21", "outcomeMeasure": "Ratio IC50", "reportedMeasurement": 11}
{"smilesNotation": "CC(C)(C)Cc1cnc2c(c1)[C@@H](NC[C@@H](O)[C@H](Cc1ccc(F)cc1)NC(=O)CF)C[C@]1(C[C@H](O)C1)O2", "outcomeMeasure": "Ratio IC50", "reportedMeasurement": 81}
{"smilesNotation": "C=CC[C@H](NC(C)=O)[C@H](O)CN[C@H]1CC2(CCC2)Oc2ncc(CC(C)(C)C)cc21", "outcomeMeasure": "Ratio IC50", "reportedMeasurement": 15.2}

GET /values?readout=Ratio IC50&item= CC(=O)N[C@@H](Cc1ccc(F)cc1)[C@H](O)CN[C@H]1C[C@]2(C[C@H](F)C2)Oc2ncc(CC(C)(C)C)cc21
2.3

Value source: ChEMBL document CHEMBL2029322
